- MEASURED_ON: MATE2K (Homo sapiens)
- ASSAY_PROCEDURE: Uptake ratio in MATE2K-overexpressing HEK293 cells vs empty vector (2.5 μM, 1 min, HPLC-MS/MS)
- Type: cell-based
- MEASUREMENT_CONDITIONS: uptake ratio MATE2K-overexpressing vs empty-vector HEK293 cells, 2.5 μM, 1 min; mean
OUTCOME_MEASURE: MATE2
Please reply with the value in numeric form only.

* CC[C@@]1(O)C(=O)OCc2c1cc1n(c2=O)Cc2cc3c(CN(C)C)c(O)ccc3nc2-1 | 1.61

What measured MATE2 goes with Cn1nnc2c(C(N)=O)ncn2c1=O [Temozolomide] ?
1.1

What measured MATE2 goes with C/C=C(\C)C(=O)OC(CC(=O)[O-])C[N+](C)(C)C (stereo not drawn) ?
0.76

What measured MATE2 goes with Cn1c(=O)c2c(ncn2CCCNCC(O)c2cc(O)cc(O)c2)n(C)c1=O (stereo not drawn) ?
17.96

* * *

// values below are reported MATE1 ratio
- MEASURED_ON: MATE1 (Homo sapiens, UniProt Q96FL8)
- Sequence (Q96FL8 whole entry): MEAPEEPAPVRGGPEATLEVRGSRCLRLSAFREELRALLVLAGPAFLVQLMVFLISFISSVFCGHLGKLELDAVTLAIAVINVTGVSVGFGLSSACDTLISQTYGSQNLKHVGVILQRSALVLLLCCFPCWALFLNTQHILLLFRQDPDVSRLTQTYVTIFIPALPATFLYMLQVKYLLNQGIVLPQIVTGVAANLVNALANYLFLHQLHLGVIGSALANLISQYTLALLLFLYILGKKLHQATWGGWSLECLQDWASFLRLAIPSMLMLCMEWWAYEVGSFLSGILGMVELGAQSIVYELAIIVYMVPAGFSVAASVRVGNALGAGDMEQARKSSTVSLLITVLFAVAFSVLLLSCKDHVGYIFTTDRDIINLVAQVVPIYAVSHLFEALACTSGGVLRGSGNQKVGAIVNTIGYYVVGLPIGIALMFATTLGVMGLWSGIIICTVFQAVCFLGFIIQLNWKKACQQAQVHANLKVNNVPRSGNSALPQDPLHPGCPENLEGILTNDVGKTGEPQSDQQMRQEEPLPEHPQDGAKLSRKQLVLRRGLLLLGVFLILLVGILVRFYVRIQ
- ASSAY_PROCEDURE: Uptake ratio in MATE1-overexpressing HEK293 cells vs empty vector (2.5 μM, 1 min, HPLC-MS/MS)
- Format: cell-based
- MEASUREMENT_CONDITIONS: fold uptake over empty vector, 2.5 μM, 1 min
Please reply with the value in numeric form only.

- CN(C)CCC=C1c2ccccc2COc2ccccc21 [Doxepin (Z), Doxepin]: 1.28
- CC(C)(C)NCC(O)c1ccc(O)c(O)c1 (stereo not shown) [Colterol]: 10.79
- CCNCC(O)c1cccc(O)c1 (stereo not shown) [Etilefrine]: 9.81

What measured MATE1 ratio goes with O=C(c1ccc(OCCN2CCCCC2)cc1)c1c(-c2ccc(O)cc2)sc2cc(O)ccc12 [Raloxifene] ?
1.12

What measured MATE1 ratio goes with CN1CCc2cccc3c2[C@H]1Cc1ccc(O)c(O)c1-3 [Apomorphine] ?
1.05

* * *

- MEASURED_ON: MATE2K (Homo sapiens)
- ASSAY_PROCEDURE: Uptake ratio in MATE2K-overexpressing HEK293 cells vs empty vector (2.5 μM, 1 min, HPLC-MS/MS)
- Type: cell-based
- MEASUREMENT_CONDITIONS: fold uptake over empty vector, 2.5 μM, 1 min
// values below are reported MATE2K ratio
Please reply with the value in numeric form only.

* Nc1nc(CC(=O)Nc2ccc(CCNC[C@H](O)c3ccccc3)cc2)cs1 | 4.76
* CNC[C@H](O)c1cccc(O)c1 [Phenylephrine (L), Phenylephrine] | 2.15
* C[N+](C)(C)C[C@@H](CC(=O)[O-])OC(=O)CCC(=O)O | 1.38
* CN1C2CCCC1CC(NC(=O)c1nn(C)c3ccccc13)C2 (stereo not drawn) | 1.25
* C[N+]1(CCC(C(N)=O)(c2ccccc2)c2ccccc2)CCCCC1 | 1.35

What measured MATE2K ratio goes with C[N+]12CCC(CC1)C(OC(=O)C(O)(c1ccccc1)c1ccccc1)C2 (stereo not drawn) ?
1.79

What measured MATE2K ratio goes with "OCCN(CCO)c1nc(N2CCCCC2)c2nc(N(CCO)CCO)nc(N3CCCCC3)c2n1" ?
1.13

What measured MATE2K ratio goes with "CNS(=O)(=O)CCc1ccc2[nH]cc(C3CCN(C)CC3)c2c1" ?
8.34

* * *

- MEASURED_ON: MATE1 (Homo sapiens, UniProt Q96FL8)
- ASSAY_PROCEDURE: Uptake ratio in MATE1-overexpressing HEK293 cells vs empty vector (2.5 μM, 1 min, HPLC-MS/MS)
- Type: cell-based
- MEASUREMENT_CONDITIONS: fold uptake over empty vector, 2.5 μM, 1 min
Group membership follows MATE1 ratio per the scheme LOW (below 1), MEDIUM (1 to below 3), HIGH (3 or more)

- Nc1nc(=O)n([C@@H]2CS[C@H](CO)O2)cc1F: HIGH
- CC[N+](CC)(CC)Cc1ccccc1: HIGH
- CNCCc1ccc(O)c(O)c1 [Deoxyepinephrine]: HIGH
- CC(C)NCC(O)c1ccc(NS(C)(=O)=O)cc1 (stereo not drawn): HIGH
- CNCCCC12CCC(c3ccccc31)c1ccccc12: MEDIUM
- COc1ccc2[nH]cc(C[C@H](N)C(=O)O)c2c1: LOW
- CN1C2CCCC1CC(NC(=O)c1nn(C)c3ccccc13)C2 (stereo not drawn): MEDIUM
- NCC(O)c1ccc(O)cc1 (stereo not drawn): HIGH

Lab note: sort C[N+]1(C)CCCC(OC(=O)C(O)(c2ccccc2)c2ccccc2)C1.[Br-] (stereo not drawn) [Mepenzolate] into the matching MATE1 ratio band.
HIGH

Lab note: sort CN(C)C(=O)Oc1cc(OC(=O)N(C)C)cc(C(O)CNC(C)(C)C)c1 (stereo not drawn) into the matching MATE1 ratio band.
MEDIUM

Lab note: sort "NCCCCNCCCN" into the matching MATE1 ratio band.
LOW

Lab note: sort CN(C)CCC=C1c2ccccc2COc2ccccc21 [Doxepin] into the matching MATE1 ratio band.
MEDIUM

* * *

- MEASURED_ON: MATE1 (Homo sapiens)
- ASSAY_PROCEDURE: Uptake ratio in MATE1-overexpressing HEK293 cells vs empty vector (2.5 μM, 1 min, HPLC-MS/MS)
- Type: cell-based
OUTCOME_MEASURE: MATE1 (uptake ratio)

Example entries begin here.
- NC(=O)NCCC[C@H](N)C(=O)O: 0.77
- CC(C)(C)NCC(O)c1cc(Cl)c(N)c(Cl)c1 (stereo not shown): 1.11
- NCCCCCN: 0.23
- NCCc1c[nH]c2c(O)cc(O)cc12 [5,7-Dihydroxytryptamine]: 1.13
- C[N+](C)(C)C[C@H](O)CC(=O)[O-]: 1.16
- COc1ccc(CCN)cc1O: 3.09
- Oc1ccc2c3c1O[C@H]1[C@H](O)CC[C@@]4(O)[C@@H](C2)N(CC2CC2)CC[C@]314 [6-beta-Naltrexol]: 1.2
- C[n+]1ccc(-c2ccccc2)cc1: 23.35
- CNC(C)Cc1ccc2c(c1)OCO2 (stereo not shown): 1.14

Consider the additional molecule presented here.
What measured MATE1 (uptake ratio) goes with CC(=O)OC1CN2CCC1CC2 (stereo not shown) ?
1.26

* * *

// values below are reported MATE2
- MEASURED_ON: MATE2K (Homo sapiens, UniProt Q86VL8)
- Sequence (Q86VL8 1-566 isoform Q86VL8-3): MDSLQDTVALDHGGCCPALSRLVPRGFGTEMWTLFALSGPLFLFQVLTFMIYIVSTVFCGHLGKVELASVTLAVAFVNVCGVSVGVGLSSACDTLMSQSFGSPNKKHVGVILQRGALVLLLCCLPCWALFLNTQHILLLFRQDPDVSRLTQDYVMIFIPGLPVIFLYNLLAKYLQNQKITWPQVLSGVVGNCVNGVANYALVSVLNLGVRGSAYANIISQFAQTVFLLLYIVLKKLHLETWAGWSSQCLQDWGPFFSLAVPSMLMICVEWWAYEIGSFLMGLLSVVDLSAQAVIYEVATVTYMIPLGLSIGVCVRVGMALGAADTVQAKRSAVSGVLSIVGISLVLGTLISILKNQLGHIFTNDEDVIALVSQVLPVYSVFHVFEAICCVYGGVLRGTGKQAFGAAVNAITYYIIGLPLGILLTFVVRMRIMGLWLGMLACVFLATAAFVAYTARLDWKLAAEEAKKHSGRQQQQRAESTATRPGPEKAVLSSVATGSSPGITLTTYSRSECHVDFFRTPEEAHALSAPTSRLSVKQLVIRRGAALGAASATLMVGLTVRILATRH
- ASSAY_PROCEDURE: Uptake ratio in MATE2K-overexpressing HEK293 cells vs empty vector (2.5 μM, 1 min, HPLC-MS/MS)
- Assay type: cell-based
- MEASUREMENT_CONDITIONS: uptake ratio MATE2K-overexpressing vs empty-vector HEK293 cells, 2.5 μM, 1 min; mean
Please reply with the value in numeric form only.

Example entries begin here.
• O=C1CCC(N2C(=O)c3ccccc3C2=O)C(=O)N1 (centres unmarked) [Thalidomide] = 2.02
• CC(C)(C)NCC(O)c1ccccc1Cl (centres unmarked) = 1.74
• c1cnc2cc3c(cc2n1)[C@@H]1CNC[C@H]3C1 = 1.3

What measured MATE2 goes with "Cc1ncc(CO)c(CN)c1O" ?
1.36

What measured MATE2 goes with "NCCc1ccc(O)cc1" ?
1.39

What measured MATE2 goes with "COC(=O)[C@@H]1[C@H]2C[C@H]3c4[nH]c5ccccc5c4CCN3C[C@@H]2CC[C@@H]1O" ?
1.35

* * *

- MEASURED_ON: MATE1 (Homo sapiens)
- ASSAY_PROCEDURE: Uptake ratio in MATE1-overexpressing HEK293 cells vs empty vector (2.5 μM, 1 min, HPLC-MS/MS)
- Type: cell-based
OUTCOME_MEASURE: MATE1 ratio
Please reply with the value in numeric form only.

• CNC(C)Cc1ccc(OC)cc1 (stereo not shown) = 1.17
• O=C1CC2(CCCC2)CC(=O)N1CCCCN1CCN(c2ncccn2)CC1 = 2.36
• CC(N)Cc1cccc(C(F)(F)F)c1 (stereo not drawn) [Norfenfluramine (+), Norfenfluramine] = 1.22
• COc1cc2c(cc1OC)[C@H](C)NCC2 = 1.24

What measured MATE1 ratio goes with "CN(CC(=O)O)C(=N)N" ?
1.01

What measured MATE1 ratio goes with "COCCn1c2c([n+](Cc3cnccn3)c1C)C(=O)c1ccccc1C2=O" ?
6.15

What measured MATE1 ratio goes with "COc1ccc(CCN)cc1" ?
1.40

* * *

- MEASURED_ON: MATE2K (Homo sapiens)
- ASSAY_PROCEDURE: Uptake ratio in MATE2K-overexpressing HEK293 cells vs empty vector (2.5 μM, 1 min, HPLC-MS/MS)
- Assay type: cell-based
- MEASUREMENT_CONDITIONS: fold uptake over empty vector, 2.5 μM, 1 min
// values below are reported MATE2K ratio
Please reply with the value in numeric form only.

Example entries begin here.
* CNCCc1ccc(O)c(O)c1 [Deoxyepinephrine] | 3.40
* CCC(NC(C)C)C(O)c1ccc(O)c(O)c1 (stereo not drawn) [Isoetharine] | 1.85
* C[C@]12CC[C@@H]3c4ccc(OS(=O)(=O)O)cc4CC[C@H]3[C@@H]1CCC2=O [Estrone-3-sulfate] | 2.08
* CNCc1ccc(-c2[nH]c3cc(F)cc4c3c2CCNC4=O)cc1 [Rucaparib] | 2.03
* CC[C@H]1OC(=O)[C@H](C)[C@@H](O[C@H]2C[C@@](C)(OC)[C@@H](O)[C@H](C)O2)[C@H](C)[C@@H](O[C@@H]2O[C@H](C)C[C@H](N(C)C)[C@H]2O)[C@](C)(OC)C[C@@H](C)C(=O)[C@H](C)[C@@H](O)[C@]1(C)O [Clarithromycin] | 1.31

What measured MATE2K ratio goes with C#CCN[C@@H]1CCc2ccccc21 [Rasagiline] ?
2.16

What measured MATE2K ratio goes with CC12CC3CC(C)(C1)CC(N)(C3)C2 [Memantine] ?
1.18

What measured MATE2K ratio goes with CO[C@H]1/C=C/O[C@@]2(C)Oc3c(C)c(O)c4c(O)c(c(/C=N/N5CCN(C)CC5)c(O)c4c3C2=O)NC(=O)/C(C)=C\C=C\[C@H](C)[C@H](O)[C@@H](C)[C@@H](O)[C@@H](C)[C@H](OC(C)=O)[C@@H]1C [Rifampicin] ?
0.93
